# Tested Target: human plasma kallikrein (Homo sapiens)
# Sequence (P03952 391-638 limits assumed): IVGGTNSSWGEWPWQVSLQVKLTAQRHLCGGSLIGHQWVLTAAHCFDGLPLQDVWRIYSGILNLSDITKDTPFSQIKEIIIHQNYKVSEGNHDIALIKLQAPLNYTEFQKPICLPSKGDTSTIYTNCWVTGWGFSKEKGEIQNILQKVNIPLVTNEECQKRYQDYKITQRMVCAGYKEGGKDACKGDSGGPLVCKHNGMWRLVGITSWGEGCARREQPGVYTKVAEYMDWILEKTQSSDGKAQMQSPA
# Sequence (P03952 20-390 partner limits assumed): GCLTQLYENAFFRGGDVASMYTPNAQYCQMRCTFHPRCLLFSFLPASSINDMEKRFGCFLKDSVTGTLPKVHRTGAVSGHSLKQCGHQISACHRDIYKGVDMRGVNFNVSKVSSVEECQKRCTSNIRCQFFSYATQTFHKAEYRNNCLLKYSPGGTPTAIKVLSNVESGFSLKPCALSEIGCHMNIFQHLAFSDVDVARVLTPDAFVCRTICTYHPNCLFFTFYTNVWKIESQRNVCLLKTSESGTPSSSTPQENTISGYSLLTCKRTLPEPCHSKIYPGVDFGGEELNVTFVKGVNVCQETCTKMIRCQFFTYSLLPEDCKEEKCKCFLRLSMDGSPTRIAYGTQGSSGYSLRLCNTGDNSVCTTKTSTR
# Assay Procedure: Kallikrein inhibition FLINT assay with quenched AMC peptide substrate Z-Gly-Pro-Arg-AMC (end point EP or kinetic KIN reads)
# Assay type: biochemical
# Assay Setup: kinetic reads at 5 min intervals over 30 min; read-out: Kallikrein (KIN) IC50
Experimental Endpoint: IC50 (nM)
Write the value in nM as a bare number.

Lab note: measured IC50 of Cn1ncnc1-c1cnn(C(CCOC(F)F)c2ccc(-c3c(N)ccc(Cl)c3F)c[n+]2[O-])c1 (stereo not shown) [Example Q45] was 231

// sample Cc1cc(-c2cnn(C(Cn3cccn3)c3ccc(-c4c(-n5cnnn5)ccc(Cl)c4F)c[n+]3[O-])c2)ccn1 (stereo not shown) [Example P285] , its IC50 was 16.2

The reported value for CN(C)C(=O)CC(c1ccc(-c2c(-n3cc(C(F)(F)F)nn3)ccc(Cl)c2F)c[n+]1[O-])n1cc(-c2ccc(C(N)=O)c(F)c2)cn1 (stereo not shown) [Example P884] in terms of IC50 is 61.3

GET /value?item= [O-][n+]1cc(-c2c(-n3cnnn3)ccc(Cl)c2F)ccc1C(CC1CC1)n1cc(-c2ccnnc2)cn1 (stereo not shown) [Example P397] &field=IC50 returns 397
